test_name: AUC in CD1 mouse kidney at 2 mg/kg, iv
Format: ADME, organism-based
observation_type: AUC (ng·h/mL)
Answers are plain numbers, in ng·h/mL.

Prompt: Requested field: AUC. Item: `CC1=CC[C@H]2[C@H](C1)c1c(O)cc(/C(C)=N/OCCCC#N)cc1OC2(C)C`
Completion: 890

---

test_name: AUC in CD1 mouse liver at 2 mg/kg, iv
Type: ADME, organism-based
observation_type: AUC (µg·h/mL)
Numbers only, in µg·h/mL.

Prompt: Requested field: AUC. Item: `CC1=CC[C@H]2[C@H](C1)c1c(O)cc(/C(C)=N/OCCCC#N)cc1OC2(C)C`
Completion: 0.58

---

system_tested: UniProt:P47936
Sequence (P47936 whole entry): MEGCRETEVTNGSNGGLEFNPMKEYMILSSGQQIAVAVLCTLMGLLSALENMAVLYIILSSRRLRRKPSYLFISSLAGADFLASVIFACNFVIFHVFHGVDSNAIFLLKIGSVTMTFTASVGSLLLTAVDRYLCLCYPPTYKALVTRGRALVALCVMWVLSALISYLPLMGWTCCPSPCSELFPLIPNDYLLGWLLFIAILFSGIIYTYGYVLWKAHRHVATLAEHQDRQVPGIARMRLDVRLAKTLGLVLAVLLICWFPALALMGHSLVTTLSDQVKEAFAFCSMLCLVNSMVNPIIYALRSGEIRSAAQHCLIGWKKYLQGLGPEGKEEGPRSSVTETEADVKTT
test_name: Displacement of [3H]CP-55,940 from recombinant mouse Cb2 receptor expressed in HEK293 cells
pKi: −log10 of the molar value.
Each entry gets Criterion not met if its pKi stays under 9, and Criterion met if its pKi is 9 or above.

Past entries and their recorded results:
compound: CC1=CC[C@H]2[C@H](C1)c1c(O)cc(/C(C)=N/OCCN3CCCCC3)cc1OC2(C)C
qualitative_label: Criterion not met

compound: CC1=CC[C@H]2[C@H](C1)c1c(O)cc(/C(C)=N/OCCCC(F)(F)F)cc1OC2(C)C
qualitative_label: Criterion met

compound: CCCC(C)O/N=C(/C)c1cc(O)c2c(c1)OC(C)(C)[C@H]1CC=C(C)C[C@H]21 (mixture of isomers)
qualitative_label: Criterion not met

compound: CC1=CC[C@H]2[C@H](C1)c1c(O)cc(/C(C)=N\OCCCC#N)cc1OC2(C)C
qualitative_label: Criterion met

compound: CC1=CC[C@H]2[C@H](C1)c1c(O)cc(/C(C)=N/OCCN3CCCC3)cc1OC2(C)C
qualitative_label: Criterion not met

compound: CCCC(C)O/N=C(\C)c1cc(O)c2c(c1)OC(C)(C)[C@H]1CC=C(C)C[C@H]21 (mixture of isomers)
qualitative_label: Criterion not met

compound: CCCCCCC(C)(C)c1cc(O)c2c(c1)OC(C)(C)[C@H]1CC=C(C)C[C@H]21
qualitative_label: Criterion not met

Now consider the entry below.
Prompt: Can `CC1=CC[C@H]2[C@H](C1)c1c(O)cc(/C(C)=N\OCCCc3ccccc3)cc1OC2(C)C` be said to have pKi at or above 9?
Completion: Criterion not met

---

test_name: Half life in rat liver microsomes
Assay type: ADME, microsome
observation_type: half-life (min)
Answers are plain numbers, in min.

Prompt: Requested field: half-life. Item: `CC1=CC[C@H]2[C@H](C1)c1c(O)cc(/C(C)=N/OCCCC#N)cc1OC2(C)C`
Completion: 12

---

test_name: AUC in CD1 mouse spleen at 10 mg/kg, po
Format: ADME, organism-based
observation_type: AUC (ng·h/mL)
Answers are plain numbers, in ng·h/mL.

Prompt: Requested field: AUC. Item: `CC1=CC[C@H]2[C@H](C1)c1c(O)cc(/C(C)=N/OCCCC#N)cc1OC2(C)C`
Completion: 107

---

test_name: Half life in CD1 mouse at 2 mg/kg, iv
Format: ADME, organism-based
test_conditions: in vivo
observation_type: half-life (min)
Answers are plain numbers, in min.

Prompt: Requested field: half-life. Item: `CC1=CC[C@H]2[C@H](C1)c1c(O)cc(/C(C)=N/OCCCC#N)cc1OC2(C)C`
Completion: 47.3
